# procedure.summary: log P determination by HPLC (EEC Directive 79/831 Annex V.A8, gradient method)
# Type: physicochemical
Exam item: assign 1 to entries whose Physical data: log P is below 4 and 0 to entries at or above 4. Note that a value of exactly 4 receives 0.

compound | class
O=C(/C=C/c1c(-c2cccc(C(F)(F)F)c2)nc2sc(C(F)(F)F)nn12)NC1CCCC1 | 0
Cc1ccccc1-c1nc2sc(C(F)(F)F)nn2c1/C=C/C(=O)NC(C)(C)C | 1
C=CCN(C)C(=O)/C=C/c1c(-c2cccc(C(F)(F)F)c2)nc2sc(C(F)(F)F)nn12 | 0
O=C(/C=C/c1c(-c2cccc(C(F)(F)F)c2)nc2sc(C(F)(F)F)nn12)NC1CC1 | 1
CCC(CC)NC(=O)/C=C/c1c(-c2ccc(F)cc2)nc2sc(C(F)(F)F)nn12 | 1
Cc1ccccc1-c1nc2sc(C(F)(F)F)nn2c1/C=C/C(=O)NC1CCC1 | 1
CCC(C)NC(=O)/C=C/c1c(-c2cccc(C(F)(F)F)c2)nc2sc(C(F)(F)F)nn12 (centres unmarked) | 0
O=C(C=Cc1c(-c2ccc(F)cc2Cl)nc2sc(C(F)(F)F)nn12)NC1CCCCC1C(F)(F)F (centres unmarked) | 0
CCCC(C)NC(=O)/C=C/c1c(-c2cccc(C(F)(F)F)c2)nc2sc(C(F)(F)F)nn12 (centres unmarked) | 0
Cc1ccccc1-c1nc2sc(C(F)(F)F)nn2c1/C=C/C(=O)NOC(C)c1ccccc1 (centres unmarked) | 1
O=C(/C=C/c1c(-c2ccc(Cl)cc2Cl)nc2sc(C(F)(F)F)nn12)N1CCOCC1 | 1
CN(C)C(=O)/C=C/c1c(-c2cccc(C(F)(F)F)c2)nc2sc(C(F)(F)F)nn12 | 1
O=C(/C=C/c1c(-c2ccccc2F)nc2sc(C(F)(F)F)nn12)N1CCOCC1 | 1
CCN(CC)C(=O)/C=C/c1c(-c2ccc(F)cc2)nc2sc(C(F)(F)F)nn12 | 1
O=C(/C=C/c1c(-c2cccc(C(F)(F)F)c2)nc2sc(C(F)(F)F)nn12)NOCC1CC1 | 1
COCC(C)NC(=O)/C=C/c1c(-c2ccc(F)cc2)nc2sc(C(F)(F)F)nn12 (centres unmarked) | 1
Cc1ccccc1-c1nc2sc(C(F)(F)F)nn2c1/C=C/C(=O)NCC1CC1 | 1
CC(NC(=O)/C=C/c1c(-c2ccc(Cl)cc2Cl)nc2sc(C(F)(F)F)nn12)c1ccccn1 (centres unmarked) | 1
O=C(/C=C/c1c(-c2cccc(C(F)(F)F)c2)nc2sc(C(F)(F)F)nn12)N1CCCCC1 | 0
CC(COc1ccccc1)NC(=O)/C=C/c1c(-c2ccc(Cl)cc2Cl)nc2sc(C(F)(F)F)nn12 (centres unmarked) | 0
CCC(CC)NC(=O)/C=C/c1c(-c2ccc(Cl)cc2Cl)nc2sc(C(F)(F)F)nn12 | 0
CC(ONC(=O)/C=C/c1c(-c2ccc(Cl)cc2Cl)nc2sc(C(F)(F)F)nn12)c1ccccc1 (centres unmarked) | 0
CON(C)C(=O)/C=C/c1c(-c2ccc(Cl)cc2Cl)nc2sc(C(F)(F)F)nn12 | 1
CCN(CC)C(=O)/C=C/c1c(-c2ccccc2Cl)nc2sc(C(F)(F)F)nn12 | 1
CC(COc1ccccc1)NC(=O)/C=C/c1c(-c2ccc(F)cc2)nc2sc(C(F)(F)F)nn12 (centres unmarked) | 0
O=C(/C=C/c1c(-c2ccc(F)cc2)nc2sc(C(F)(F)F)nn12)N1CCOCC1 | 1
